- Target entity: T1, Recombinant cynomolgus TfR1, His6-tagged (a.a. 89-760) (cynomolgus, UniProt H9EXL1 89-760 (rhesus entry))
- T1 construct: range 89-760; same product number named for FP and SPR; also called Cyno TfR1; Acro Biosystems TFR-C524a
- T1 sequence (chain, as listed by the source): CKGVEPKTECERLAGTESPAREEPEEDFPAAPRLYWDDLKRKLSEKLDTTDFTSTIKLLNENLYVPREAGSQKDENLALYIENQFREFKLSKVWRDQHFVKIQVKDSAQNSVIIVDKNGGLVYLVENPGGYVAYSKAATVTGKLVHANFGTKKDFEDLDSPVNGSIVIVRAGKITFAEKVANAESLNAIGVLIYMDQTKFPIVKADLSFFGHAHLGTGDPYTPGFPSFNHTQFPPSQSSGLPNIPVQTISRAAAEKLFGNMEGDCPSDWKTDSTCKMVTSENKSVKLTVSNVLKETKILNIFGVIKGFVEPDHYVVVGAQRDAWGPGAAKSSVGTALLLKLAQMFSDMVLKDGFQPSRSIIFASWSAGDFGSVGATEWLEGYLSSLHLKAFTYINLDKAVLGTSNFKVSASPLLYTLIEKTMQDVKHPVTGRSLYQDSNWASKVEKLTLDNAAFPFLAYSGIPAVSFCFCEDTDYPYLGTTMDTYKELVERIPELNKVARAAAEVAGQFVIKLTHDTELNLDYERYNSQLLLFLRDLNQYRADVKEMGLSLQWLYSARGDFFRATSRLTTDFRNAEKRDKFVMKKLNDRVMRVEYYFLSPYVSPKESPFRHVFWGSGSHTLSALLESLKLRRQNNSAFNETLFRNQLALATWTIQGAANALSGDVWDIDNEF
- Experimental details: SPR, TfR1 on chip
Starred links: 1 amine or outer side, 2 acyl side, 3 side chain; linkers in the order of their positions; H or OH if unused. Positions of bridges follow the written chain, without caps; N, C: chain ends. Non-standard residues stand in square brackets, D forms with d. No end group written: not given here. TATB = O=C(C[*:1])N1CN(C(=O)C[*:2])CN(C(=O)C[*:3])C1; Tle = CC(C)(C)[C@H](N)C(=O)O
Below: a set of entries, each annotated with reported Kd.
The reply should contain only the number, in nM.

ACSPDAHLGC[Tle]SYCA (linker 2-10-14 via TATB) [BCY16051]	1820

Kd reading for HWMCSPDAHLGCISYCA (linker 4-12-16 via TATB) [BCY17110] : 232

Recorded values, source patent US20250340595A1.
